Target: UniProt P00533
Sequence (P00533 25-1210): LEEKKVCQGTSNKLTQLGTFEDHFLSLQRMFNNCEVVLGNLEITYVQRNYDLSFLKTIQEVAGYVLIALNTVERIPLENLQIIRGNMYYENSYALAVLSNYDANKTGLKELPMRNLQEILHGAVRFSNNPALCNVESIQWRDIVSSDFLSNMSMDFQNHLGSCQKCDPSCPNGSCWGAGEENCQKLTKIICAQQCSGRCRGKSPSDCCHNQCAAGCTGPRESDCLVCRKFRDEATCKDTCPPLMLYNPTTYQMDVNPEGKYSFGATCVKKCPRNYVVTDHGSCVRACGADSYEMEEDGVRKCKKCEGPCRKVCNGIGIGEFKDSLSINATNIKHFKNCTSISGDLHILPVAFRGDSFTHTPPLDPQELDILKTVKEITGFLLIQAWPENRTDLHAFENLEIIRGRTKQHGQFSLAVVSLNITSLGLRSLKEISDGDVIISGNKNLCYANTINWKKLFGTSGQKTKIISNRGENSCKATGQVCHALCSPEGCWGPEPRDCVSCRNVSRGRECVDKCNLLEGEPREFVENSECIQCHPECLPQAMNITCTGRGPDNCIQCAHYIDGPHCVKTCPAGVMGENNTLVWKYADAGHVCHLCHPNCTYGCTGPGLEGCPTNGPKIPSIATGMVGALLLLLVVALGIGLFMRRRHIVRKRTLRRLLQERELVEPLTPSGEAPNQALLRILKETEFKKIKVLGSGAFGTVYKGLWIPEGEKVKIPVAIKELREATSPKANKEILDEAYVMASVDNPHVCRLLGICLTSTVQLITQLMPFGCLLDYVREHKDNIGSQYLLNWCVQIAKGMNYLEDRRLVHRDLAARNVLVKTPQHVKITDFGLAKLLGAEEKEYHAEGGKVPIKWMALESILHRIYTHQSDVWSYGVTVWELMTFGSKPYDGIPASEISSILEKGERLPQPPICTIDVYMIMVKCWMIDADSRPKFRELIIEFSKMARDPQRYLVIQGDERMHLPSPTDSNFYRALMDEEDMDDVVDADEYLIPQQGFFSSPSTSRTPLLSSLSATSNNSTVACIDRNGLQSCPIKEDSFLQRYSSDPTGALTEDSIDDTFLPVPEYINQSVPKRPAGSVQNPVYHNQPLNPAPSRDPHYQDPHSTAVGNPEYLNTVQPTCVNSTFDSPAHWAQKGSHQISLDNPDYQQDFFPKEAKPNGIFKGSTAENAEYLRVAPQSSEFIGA
Measured Attribute: IC50
Just so you know, I need the unit written after the number.

What measured IC50 is associated with "CO[C@@H]1[C@H](N(C)C(=O)CCC(=O)NCc2cn(CCCS(=O)(=O)O)nn2)C[C@H]2O[C@]1(C)n1c3ccccc3c3c4c(c5c6ccccc6n2c5c31)C(=O)NC4" on UniProt P00533? 1610 nM

* * *

Assay: in vitro
Settings: human, Huh-7.5 cells infected with SARS-CoV-2
Measured Attribute: viability at 24 h, 50 µM (%)
All answers are understood in %, so give the number only.

Field request: viability at 24 h, 50 µM | item: CO[C@@H]1[C@H](N(C)C(=O)CCC(=O)NCc2cn(CCCS(=O)(=O)O)nn2)C[C@H]2O[C@]1(C)n1c3ccccc3c3c4c(c5c6ccccc6n2c5c31)C(=O)NC4 [CIMSS] 97.2
